Tested on: secreted mouse PGRN
Test: progranulin induction cellular assay (PGRN assay, ELISA-based readout)
Conditions: Mus musculus, progranulin secreted into cell culture medium, cells named in method: mouse primary microglia, primary cortical neurons, BV-2
Procedure: Cellular Assays: To measure the efficacy of compounds, a progranulin induction cellular assay in mouse primary microglia (pMG), primary cortical neurons, and BV-2 cell lines is used. […] Levels of progranulin secreted into the cell culture medium or retained in the cell lysate can be quantified using an ELISA-based readout and measurement of secreted mouse PGRN in the medium was assessed by the methodology published by Ghidoni et al. 2012. […]
pEC50: −log10 of the molar value.
# pEC50 >= 7 gives Y, anything below gives N

- Compound: "O=C1N[C@]2(CCCNC2)N=C1N1CCc2ccccc2[C@@H]1c1ccc(F)cc1 [Compound 3147]"
  Label Class: "Y"
- Compound: "Fc1ccc([C@H]2c3ccccc3CCN2C2=NC[C@]3(CN4CCC3CC4)O2)c(F)c1 (single isomer, unassigned) [Compound 3017]"
  Label Class: "N"
- Compound: "CN1CCC[C@@]2(CN=C(N3CCc4ccccc4[C@@H]3c3cc(F)c(F)c(F)c3)O2)C1 (single isomer, unassigned) [Compound 3003]"
  Label Class: "N"
- Compound: "Fc1cccc([C@@H]2c3ccccc3CCN2C2=NC[C@]3(CN4CCC3CC4)O2)c1 (stereo in doubt) [Compound 3023]"
  Label Class: "N"

Please turn your attention to the following entry.
Check if pEC50 >= 7 (inclusive). Item: Fc1ccc([C@H]2c3ccccc3CCN2C2=NC[C@H]([C@@H]3CCNC3)O2)cc1 (single isomer, unassigned) [Compound 3063]
N

----------
tested on: secreted mouse PGRN; assay: progranulin induction cellular assay (PGRN assay, ELISA-based readout); conditions: progranulin secreted into cell culture medium, cells named in method: mouse primary microglia, primary cortical neurons, BV-2
Endpoint Label: pEC50
In simple prose, pEC50 is minus the logarithm base ten of a concentration in moles per litre.

- Compound: "CN1CCC[C@]2(CN=C(N3CCc4ccccc4[C@@H]3c3cccc(F)c3)O2)C1 (single isomer, unassigned) [Compound 3006]"
  pEC50: 6.00
- Compound: "Fc1cc(F)cc([C@H]2c3ccccc3CCN2C2=NC[C@]3(CN4CCC3CC4)O2)c1 (stereo in doubt)"
  pEC50: 5.98

Any idea what pEC50 came out for CN1CCC[C@]2(CN=C(N3CCc4ccccc4[C@@H]3c3cccc(F)c3)O2)C1 (single isomer, unassigned) [Compound 3009] on secreted mouse PGRN?
5.15

----------
# maps each entry to its log10(EC50)
Test system: secreted mouse PGRN
Assay: progranulin induction cellular assay (PGRN assay, ELISA-based readout)
Conditions: Mus musculus, progranulin secreted into cell culture medium, cells named in method: mouse primary microglia, primary cortical neurons, BV-2
Procedure: Cellular Assays: To measure the efficacy of compounds, a progranulin induction cellular assay in mouse primary microglia (pMG), primary cortical neurons, and BV-2 cell lines is used. […] Levels of progranulin secreted into the cell culture medium or retained in the cell lysate can be quantified using an ELISA-based readout and measurement of secreted mouse PGRN in the medium was assessed by the methodology published by Ghidoni et al. 2012. […]
Give log10 of EC50, with EC50 taken in nM.

- Compound: "CN1CCC[C@@]2(CN=C(N3CCc4ccccc4[C@H]3c3cc(F)cc(F)c3)O2)C1 (single isomer, unassigned) [Compound 3013]"
  log10(EC50): 3.20

Name the reported log10(EC50) value associated with the compound CN1CCC[C@]2(CN=C(N3CCc4ccccc4[C@@H]3c3cccc(F)c3F)O2)C1 (stereo in doubt) [Compound 3043]
3.59

Quick one: log10(EC50) for Fc1ccc([C@H]2c3ccccc3CCN2C2=NC[C@]3(CNC[C@@H]3F)O2)cc1 (single isomer, unassigned) [Compound 3169] ?
2.30

----------
tested on: secreted mouse PGRN; assay: progranulin induction cellular assay (PGRN assay, ELISA-based readout); conditions: Mus musculus, progranulin secreted into cell culture medium, cells named in method: mouse primary microglia, primary cortical neurons, BV-2
# strict inequality: EC50 < 200 nM yields yes (1), everything else yields no (0)

- Molecule: "Fc1ccc([C@H]2c3ccccc3CCN2C2=NC[C@@H]([C@@H]3CCCNC3)O2)cc1 (single isomer, unassigned) [Compound 3149]"
  System Tested: "secreted mouse PGRN"
  Label Class: "no (0)"
- Molecule: "Fc1ccc([C@H]2c3ccccc3CCN2C2=N[C@@H]([C@H]3CCNC3)CO2)cc1 (single isomer, unassigned) [Compound 3073]"
  System Tested: "secreted mouse PGRN"
  Label Class: "yes (1)"
- Molecule: "Fc1ccc([C@H]2c3ccccc3CCN2C2=NC[C@]3(CCNC3)O2)cc1 (single isomer, unassigned) [Compound 3050]"
  System Tested: "secreted mouse PGRN"
  Label Class: "yes (1)"
- Molecule: "N[C@H]1CC[C@@]2(CN=C(N3CCc4ccccc4[C@@H]3c3ccc(F)cc3)O2)C1 (single isomer, unassigned) [Compound 3080]"
  System Tested: "secreted mouse PGRN"
  Label Class: "yes (1)"
- Molecule: "CN1CCC[C@]2(CN=C(N3CCc4ccccc4[C@H]3c3cc(F)cc(F)c3)O2)C1 (single isomer, unassigned) [Compound 3012]"
  System Tested: "secreted mouse PGRN"
  Label Class: "no (0)"

Find out if reported EC50 for CN1CC[C@@]2(CN=C(N3CCc4ccccc4[C@@H]3c3ccc(F)cc3)O2)C1 [Compound 3167] is less than 200 nM
yes (1)

Strictly below 200 nM: is that where EC50 of Fc1ccc([C@H]2c3ccccc3CCN2C2=NC[C@H]([C@H]3CCCNC3)O2)cc1 (single isomer, unassigned) [Compound 3076] sits?
no (0)

Item Fc1ccc([C@H]2c3ccccc3CCN2C2=N[C@@H]([C@@H]3CCNC3)CO2)cc1 (single isomer, unassigned) [Compound 3074] : EC50 beneath 200 nM, strictly?
no (0)

Below 200 nM on EC50? Entry Fc1ccc([C@H]2c3ccccc3CCN2C2=NCC([C@H]3CCNC3)O2)cc1 (single isomer, unassigned) [Compound 3064]
yes (1)

Would you kindly verify if EC50 of Fc1cc(F)cc([C@@H]2c3ccccc3CCN2C2=NC[C@@]3(CN4CCC3CC4)O2)c1 (stereo in doubt) [Compound 3038] is strictly less than 200 nM?
no (0)

EC50 under 200 nM? Item: Fc1ccc([C@H]2c3ccccc3CCN2C2=NC3(CCNCC3)CO2)cc1 [Compound 3056]
yes (1)

Is the reported EC50 for CN1CCC[C@]2(CN=C(N3CCc4ccccc4[C@@H]3c3cc(F)cc(F)c3)O2)C1 (single isomer, unassigned) [Compound 3010] strictly below 200 nM?
no (0)

Dear reviewer, please state whether Fc1ccc([C@H]2c3ccccc3CCN2C2=N[C@]3(CCCNC3)CO2)cc1 (single isomer, unassigned) [Compound 3053] has EC50 strictly beneath 200 nM.
no (0)

----------
system: secreted mouse PGRN; test: progranulin induction cellular assay (PGRN assay, ELISA-based readout); settings: Mus musculus, progranulin secreted into cell culture medium, cells named in method: mouse primary microglia, primary cortical neurons, BV-2
// map EC50 to label using A = under 200 nM, B = from 200 nM up to 900 nM, C = 900 nM and over

Solved entries (count: 5):
- Molecule: "Fc1ccc([C@H]2c3ccccc3CCN2C2=NC[C@@H](C3CCNCC3)O2)cc1"
  Label Class: "B"
- Molecule: "Fc1cccc([C@H]2c3ccccc3CCN2C2=NC[C@]3(CN4CCC3CC4)O2)c1F (single isomer, unassigned)"
  Label Class: "B"
- Molecule: "CN1CCC[C@@]2(CN=C(N3CCc4ccccc4[C@H]3c3cc(F)c(F)c(F)c3)O2)C1 (single isomer, unassigned)"
  Label Class: "C"
- Molecule: "Fc1ccc([C@H]2c3ccccc3CCN2C2=NC[C@H](C3(F)CNC3)O2)cc1 (single isomer, unassigned)"
  Label Class: "A"
- Molecule: "Fc1ccc([C@H]2c3ccccc3CCN2C2=NC[C@H](C34CCN(CC3)CC4)O2)cc1"
  Label Class: "C"

Sort Fc1cccc([C@@H]2c3ccccc3CCN2C2=NC[C@@]3(CN4CCC3CC4)O2)c1F (single isomer, unassigned) into one of the categories.
C

Textbook exercise: identify the category of the molecule given here, Fc1ccc([C@H]2c3ccccc3CCN2C2=NC[C@]3(CN4CCC3CC4)O2)cc1 (single isomer, unassigned) , according to its measured value.
B

Which class is correct for the following molecule? Fc1ccc([C@H]2c3ccccc3CCN2C2=N[C@H]([C@@H]3CCNC3)CO2)cc1 (single isomer, unassigned)
B

Category lookup for the molecule CN1CCC[C@]2(CN=C(N3CCc4ccccc4[C@H]3c3cccc(F)c3)O2)C1 (single isomer, unassigned)
C

State the class of the molecule shown: CN1CCC2(CC1)COC(N1CCc3ccccc3[C@@H]1c1ccc(F)cc1)=N2
B

----------
tested on: secreted mouse PGRN; assay: progranulin induction cellular assay (PGRN assay, ELISA-based readout); settings: Mus musculus, progranulin secreted into cell culture medium, cells named in method: mouse primary microglia, primary cortical neurons, BV-2
molecules and their reported EC50
The reply should be a number in nM, with the unit left off.

Below, each entry is followed by its recorded EC50 result.
- Molecule: "N[C@@H]1CC[C@@]2(COC(N3CCc4ccccc4[C@@H]3c3ccc(F)cc3)=N2)C1"
  Endpoint Label: "EC50"
  Measure Unit: "nM"
  Measured Value: 160
- Molecule: "N[C@H]1C[C@@]2(CN=C(N3CCc4ccccc4[C@@H]3c3ccc(F)cc3)O2)C1"
  Endpoint Label: "EC50"
  Measure Unit: "nM"
  Measured Value: 115
- Molecule: "CN1CCC[C@@H]([C@@H]2CN=C(N3CCc4ccccc4[C@@H]3c3ccc(F)cc3)O2)C1 (single isomer, unassigned)"
  Endpoint Label: "EC50"
  Measure Unit: "nM"
  Measured Value: 266
- Molecule: "Fc1ccc([C@H]2c3ccccc3CCN2C2=NC[C@H]([C@@H]3CCCNC3)O2)cc1 (single isomer, unassigned)"
  Endpoint Label: "EC50"
  Measure Unit: "nM"
  Measured Value: 222
- Molecule: "c1ccc([C@H]2c3ccccc3CCN2C2=NC[C@@]3(CN4CCC3CC4)O2)cc1 (single isomer, unassigned)"
  Endpoint Label: "EC50"
  Measure Unit: "nM"
  Measured Value: 1720

Item CN(C)[C@H]1C[C@]2(CN=C(N3CCc4ccccc4[C@@H]3c3ccc(F)cc3)O2)C1 (single isomer, unassigned) has what recorded EC50?
3580

I have this molecule here, CN1CCC[C@]2(CN=C(N3CCc4ccccc4[C@@H]3c3cc(F)c(F)c(F)c3)O2)C1 (single isomer, unassigned) , and I need its recorded EC50.
5080

I am curious: what EC50 value has been reported for Fc1ccc([C@H]2c3ccccc3CCN2C2=NCC3(CCNCC3)O2)cc1 ?
110

Item under review: CN1CCC[C@H]([C@H]2CN=C(N3CCc4ccccc4[C@@H]3c3ccc(F)cc3)O2)C1 (single isomer, unassigned) . Reported EC50?
940

For the molecule shown here, Fc1cccc([C@@H]2c3ccccc3CCN2C2=NC[C@@]3(CN4CCC3CC4)O2)c1 (stereo in doubt) , give the reported EC50.
1490

Give the measured EC50 of Fc1ccc([C@H]2c3ccccc3CCN2C2=NC[C@@]3(CCN(CCC(F)(F)F)C3)O2)cc1 .
1380

// EC50 lookup, key: Fc1ccc([C@H]2c3ccccc3CCN2C2=NC[C@@]3(CN4CCC3CC4)O2)cc1F (stereo in doubt)
3960

Given Fc1ccc([C@H]2c3ccccc3CCN2C2=N[C@@]3(CCCNC3)CO2)cc1 (single isomer, unassigned) , state its recorded EC50.
110

Hey, just so you know, these numbers are from patent US20220409593A1.
